Assay: CCTE_Shafer_MEA_dev_active_electrodes_number: CCTE's Neural Network Formation Assay for Number of Active Electrodes, Shafer Lab (AID 2284040)
Experimental: CCTE_Shafer_MEA_dev assay is conducted using Axion Biosystems 48 well microelectrode array (MEA) plates and Maestro recording system. Each well of the MEA plate contains a grid of 16 microelectrodes embedded in the culture surface. Electrically active cells, such as neurons, can be cultured over the electrodes, and electrical activity in these cells can be recorded extracellularly. […]
Results filed as inconclusive are left out. Activity calls are given as the source filed them. The calls were made as follows: active = hit-call score of the fitted dose curve at least 0.9, where 1 is the maximum; inconclusive = response in the unintended direction; inactive = score below 0.9.
Outcomes you can answer with include only these: active, inactive

Field: example entries. Status: answers known.
{"columns": ["mol", "qualitativeLabel"],
 "data": [
  ["OCCCCC(F)(F)C(F)(F)C(F)(F)C(F)(F)F", "inactive"],
  ["NC(O)(C(F)(F)F)C(F)(F)F", "inactive"],
  ["OCC(F)(F)C(F)(F)C(F)(F)C(F)(F)C(F)(F)C(F)(F)CO", "active"]
]}

# fetch the recorded call for `OCC(F)(F)C(F)(F)C(F)(F)CO` here
inactive

# fetch the recorded call for `CCN(CCO)S(=O)(=O)C(F)(F)C(F)(F)C(F)(F)C(F)(F)C(F)(F)C(F)(F)C(F)(F)C(F)(F)F` here
inactive

# fetch the recorded call for `FC(F)(F)C(F)(F)C(F)(F)C(F)(F)C(F)(F)C(F)(F)C(F)(F)CCI` here
inactive

# fetch the recorded call for `O=S(=O)(O)CCC(F)(F)C(F)(F)C(F)(F)C(F)(F)F` here
inactive

* * *

Read-out: Urokinase-type plasminogen activator receptor (uPAR), PLAUR (gene 5329)
Experiment: BSK_4H_uPAR: BioMAP Diversity Plus: 4H Assay for Urokinase-type plasminogen activator receptor (uPAR) Biomarker Activity (AID 2283030)
Conditions: primary human endothelial cells (HUVEC); actives raise or lower the signal
The source made the active and inactive calls. Rule for the calls: active = hit-call score of the fitted dose curve at least 0.9, where 1 is the maximum; inactive = score below 0.9.
Outcomes you can answer with include only these: active, inactive

# fetch the recorded call for `O=C(Cl)C(F)(F)C(F)(F)C(F)(F)C(F)(F)C(F)(F)C(F)(F)C(F)(F)F` here
inactive

# fetch the recorded call for `CO[Si](C)(CCC(F)(F)C(F)(F)C(F)(F)C(F)(F)C(F)(F)C(F)(F)F)OC` here
inactive

# fetch the recorded call for `Cc1cc(O)c(C(C)(C)C)cc1C(C)(C)C` here
active

# fetch the recorded call for `CC(C)(C)c1cc(CCC(=O)NCCCCCCNC(=O)CCc2cc(C(C)(C)C)c(O)c(C(C)(C)C)c2)cc(C(C)(C)C)c1O` here
inactive

# fetch the recorded call for `Nc1cc([N+](=O)[O-])cc(Cl)c1O` here
inactive

# fetch the recorded call for `O=C(O)C(F)(F)C(F)(F)C(F)(F)C(=O)O` here
inactive

# fetch the recorded call for OCC(O)CC(F)(F)C(F)(F)C(F)(F)C(F)(F)C(F)(F)C(F)(F)C(F)(F)C(F)(F)F (centres undefined) here
inactive

* * *

Biological target: Agonist Androgen Response Element (ARE), AR (gene 367) (UniProt P10275)
Sequence (P10275 whole entry, looked up): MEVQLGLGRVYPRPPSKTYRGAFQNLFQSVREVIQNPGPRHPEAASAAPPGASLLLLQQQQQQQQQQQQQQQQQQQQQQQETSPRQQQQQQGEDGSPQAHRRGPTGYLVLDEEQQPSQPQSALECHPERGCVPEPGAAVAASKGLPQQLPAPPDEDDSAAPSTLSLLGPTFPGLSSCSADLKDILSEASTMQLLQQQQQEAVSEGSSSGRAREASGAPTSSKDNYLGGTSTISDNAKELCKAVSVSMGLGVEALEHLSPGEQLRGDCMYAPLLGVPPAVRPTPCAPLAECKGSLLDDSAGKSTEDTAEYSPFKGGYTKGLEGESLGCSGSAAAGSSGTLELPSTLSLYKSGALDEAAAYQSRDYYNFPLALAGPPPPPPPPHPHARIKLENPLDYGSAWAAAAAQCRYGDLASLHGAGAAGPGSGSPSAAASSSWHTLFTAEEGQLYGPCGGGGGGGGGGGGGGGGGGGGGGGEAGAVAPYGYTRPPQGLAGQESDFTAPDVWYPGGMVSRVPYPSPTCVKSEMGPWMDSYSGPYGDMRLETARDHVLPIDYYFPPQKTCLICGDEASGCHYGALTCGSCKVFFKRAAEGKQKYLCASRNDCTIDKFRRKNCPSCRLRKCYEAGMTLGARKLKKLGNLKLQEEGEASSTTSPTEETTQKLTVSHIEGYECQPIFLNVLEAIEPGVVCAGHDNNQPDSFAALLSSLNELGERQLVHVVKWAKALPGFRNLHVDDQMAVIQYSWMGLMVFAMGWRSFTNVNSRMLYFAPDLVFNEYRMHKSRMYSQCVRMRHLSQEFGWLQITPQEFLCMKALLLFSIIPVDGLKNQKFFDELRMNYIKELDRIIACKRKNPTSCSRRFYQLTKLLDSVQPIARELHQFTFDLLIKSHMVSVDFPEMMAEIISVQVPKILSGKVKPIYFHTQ
Assay: OT_AR_ARELUC_AG_1440: Odyssey Thera (OT) 24-hour CHO-K1 Luciferase Assay for Agonist Androgen Response Element (ARE) (AID 2283379)
Inconclusive results are not listed. Activity calls are given as the source filed them. How the source made its calls: active means hit-call score of the fitted dose curve at least 0.9, where 1 is the maximum; inconclusive means response in the unintended direction; inactive means score below 0.9.
Outcomes you can answer with include only these: active, inactive

Field: example entries. Status: answers known.
{"columns": ["compound", "testedOn", "qualitativeLabel"],
 "data": [
  ["CCCCCCCC/C=C\\CCCCCCCC(=O)OCC(O)CO (stereo not drawn)", "Agonist Androgen Response Element (ARE), AR (gene 367) (UniProt P10275)", "inactive"],
  ["CCCCCCCCCCCCC[N+](C)(C)Cc1ccccc1", "Agonist Androgen Response Element (ARE), AR (gene 367) (UniProt P10275)", "inactive"],
  ["C[C@]12CC[C@H]3C(=CCc4cc(O)ccc43)[C@@H]1CCC2=O", "Agonist Androgen Response Element (ARE), AR (gene 367) (UniProt P10275)", "active"]
]}

# fetch the recorded call for `CCN=c1cc2oc3cc(NCC)c(C)cc3c(-c3ccccc3C(=O)OCC)c-2cc1C` here
inactive

# fetch the recorded call for `O=C1C=CC(=O)N1c1ccccc1` here
inactive

# fetch the recorded call for `COCCOCCC[Si](C)(O[Si](C)(C)C)O[Si](C)(C)C` here
inactive

# fetch the recorded call for `CCN=C1C=CC(=C(c2ccc(N(CC)CC)cc2)c2ccc(N(CC)CC)cc2)c2ccccc21` here
inactive

# fetch the recorded call for `CCCCCCCCCc1ccc(OCCO)cc1` here
active

* * *

Biological target: human Retinoic Acid Receptor beta (RARb), RARB (gene 5915)
Assay: ATG_RARb_TRANS: Attagene TRANS-FACTORIAL HepG2 Assay for human Retinoic Acid Receptor beta (AID 2283004)
Records with an inconclusive call do not appear. Activity calls are given as the source filed them. Rule for the calls: active = hit-call score of the fitted dose curve at least 0.9, where 1 is the maximum; inconclusive = response in the unintended direction; inactive = score below 0.9.
readoutType: outcome

# annotated cases, reported outcome shown
{"columns": ["mol", "outcome"],
 "data": [
  ["O=C(c1ccccc1)c1ccc(O)cc1O", "inactive"],
  ["CNS(=O)(=O)C(F)(F)C(F)(F)C(F)(F)C(F)(F)C(F)(F)C(F)(F)C(F)(F)C(F)(F)F", "inactive"],
  ["O=S(=O)(Cl)C(F)(F)C(F)(F)C(F)(F)C(F)(F)C(F)(F)C(F)(F)C(F)(F)C(F)(F)F", "inactive"],
  ["Brc1ccccn1", "inactive"],
  ["C=C(C)CCCC", "inactive"]
]}

Can you look up the measured outcome of `C[C@]12CC[C@H]3C(=CCc4cc(O)ccc43)[C@@H]1CCC2=O` for me?
inactive

Can you look up the measured outcome of `O=C=Nc1cccc2c(N=C=O)cccc12` for me?
inactive

Can you look up the measured outcome of `CCn1c2ccccc2c2ccccc21` for me?
inactive

Can you look up the measured outcome of `OCCCC(F)(F)C(F)(F)C(F)(F)C(F)(F)C(F)(F)C(F)(F)C(F)(F)C(F)(F)F` for me?
inactive

Can you look up the measured outcome of `NCC(F)(F)C(F)(F)C(F)(F)C(F)(F)C(F)(F)C(F)(F)C(F)(F)C(F)(F)F` for me?
inactive

Can you look up the measured outcome of `O=C(Cl)C(F)(F)C(F)(F)C(F)(F)C(F)(F)C(F)(F)C(F)(F)F` for me?
inactive

* * *

Target: Cellular tumor antigen p53 (Homo sapiens) (UniProt P04637)
Sequence (P04637 whole entry, looked up): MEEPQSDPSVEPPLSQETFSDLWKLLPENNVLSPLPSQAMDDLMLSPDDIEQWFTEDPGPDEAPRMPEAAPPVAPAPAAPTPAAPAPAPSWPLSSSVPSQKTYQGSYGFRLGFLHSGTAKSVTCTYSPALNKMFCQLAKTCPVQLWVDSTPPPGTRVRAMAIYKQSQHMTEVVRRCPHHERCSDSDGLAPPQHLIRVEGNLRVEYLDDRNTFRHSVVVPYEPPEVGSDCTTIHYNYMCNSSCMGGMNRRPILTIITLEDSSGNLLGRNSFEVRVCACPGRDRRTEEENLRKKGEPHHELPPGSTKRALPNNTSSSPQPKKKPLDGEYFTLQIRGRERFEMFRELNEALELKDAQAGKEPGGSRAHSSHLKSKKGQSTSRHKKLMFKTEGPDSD
Experiment: TOX21_p53_BLA_p4_ratio: Tox21 HCT-116 p53 Agonism Beta-lactamase Assay, Ratio, Phase 4 (AID 2283601)
Records with an inconclusive call do not appear. Calls of active or inactive are those of the source. The calls were made as follows: active = hit-call score of the fitted dose curve at least 0.9, where 1 is the maximum; inconclusive = response in the unintended direction; inactive = score below 0.9.
Outcomes you can answer with include only these: 1.0 = active, 0.0 = inactive

# fetch the recorded call for CCCCC(CC)COC(=O)c1ccc(N(C)C)cc1 (stereo not given) here
0.0

* * *

Assay: BSK_BT_Bcell_Proliferation: Viability Assessment in the BioMAP Diversity Plus: BT Assay for B cell Proliferation (AID 2284227)
Conditions: primary human B cells with PBMC
Activity calls are given as the source filed them. Rule for the calls: active = hit-call score of the fitted dose curve at least 0.9, where 1 is the maximum; inactive = score below 0.9.
Outcomes you can answer with include only these: true = active, false = inactive

Field: example entries. Status: answers known.
{"columns": ["mol", "qualitativeLabel"],
 "data": [
  ["C[C@]12CC[C@H]3C(=CCc4cc(O)ccc43)[C@@H]1CCC2=O", "true"],
  ["O=C(Cl)C(F)(F)C(F)(F)C(F)(F)C(F)(F)C(F)(F)C(F)(F)F", "false"],
  ["O=C(O)C(F)(F)C(F)(F)C(F)(F)C(=O)O", "false"],
  ["O=C1C=CC(=O)N1c1ccc(Cc2ccc(N3C(=O)C=CC3=O)cc2)cc1", "true"],
  ["O=S(=O)(Cl)C(F)(F)C(F)(F)C(F)(F)C(F)(F)C(F)(F)C(F)(F)C(F)(F)C(F)(F)F", "false"]
]}

# fetch the recorded call for `OC(O)C(F)(F)C(F)(F)F` here
false

# fetch the recorded call for `FC(F)(F)C(F)(F)C(F)(F)C(F)(F)C(F)(F)C(F)(F)C(F)(F)CCI` here
false

# fetch the recorded call for `O=C(O)CCC(F)(F)C(F)(F)C(F)(F)F` here
false

* * *

Biological target: Hypoxia-inducible factor 1-alpha (Homo sapiens) (UniProt Q16665)
Sequence (Q16665 whole entry, looked up): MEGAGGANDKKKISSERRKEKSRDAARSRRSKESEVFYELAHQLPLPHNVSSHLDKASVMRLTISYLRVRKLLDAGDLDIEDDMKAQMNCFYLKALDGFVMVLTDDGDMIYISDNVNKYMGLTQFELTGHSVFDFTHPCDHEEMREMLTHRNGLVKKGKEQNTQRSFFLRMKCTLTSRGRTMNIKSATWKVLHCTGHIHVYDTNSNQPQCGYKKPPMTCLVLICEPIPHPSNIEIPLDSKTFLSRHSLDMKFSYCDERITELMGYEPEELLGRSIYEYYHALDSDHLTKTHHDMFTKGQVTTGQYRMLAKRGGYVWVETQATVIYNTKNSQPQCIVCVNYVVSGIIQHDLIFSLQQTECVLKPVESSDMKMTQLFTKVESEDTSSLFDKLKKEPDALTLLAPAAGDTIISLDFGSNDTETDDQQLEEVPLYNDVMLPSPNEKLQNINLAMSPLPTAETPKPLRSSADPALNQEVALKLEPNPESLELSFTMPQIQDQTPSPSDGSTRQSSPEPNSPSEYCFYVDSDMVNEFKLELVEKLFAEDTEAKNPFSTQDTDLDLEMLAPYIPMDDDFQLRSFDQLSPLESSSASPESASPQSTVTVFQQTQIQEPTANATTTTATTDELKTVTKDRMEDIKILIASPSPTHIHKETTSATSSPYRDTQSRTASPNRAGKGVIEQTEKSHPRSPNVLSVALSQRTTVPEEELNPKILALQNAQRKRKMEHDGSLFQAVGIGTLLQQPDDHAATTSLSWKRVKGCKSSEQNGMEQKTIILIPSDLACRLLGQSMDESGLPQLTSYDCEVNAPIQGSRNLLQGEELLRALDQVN
Test: ATG_HIF1a_CIS: Attagene CIS-FACTORIAL HepG2 Assay for human Hypoxia Inducible Factor 1 (HIF1A) (AID 2282951)
Settings: HepG2 Attagene cis-factorial HIF1a reporter transcription; actives raise or lower the signal
Activity calls are given as the source filed them. The calls were made as follows: active = hit-call score of the fitted dose curve at least 0.9, where 1 is the maximum; inactive = score below 0.9.
Outcomes you can answer with include only these: 1 for active, -1 for inactive

Field: example entries. Status: answers known.
{"columns": ["compound", "qualitativeLabel"],
 "data": [
  ["CC(C)(C)C(=O)C1C(=O)c2ccccc2C1=O", 1],
  ["O=S(=O)(O)CCC(F)(F)C(F)(F)C(F)(F)C(F)(F)C(F)(F)C(F)(F)C(F)(F)C(F)(F)F", -1],
  ["CC(C)=CCCC(C)O (stereo not drawn)", -1],
  ["C[Si](C)O[Si](C)C", -1],
  ["CCn1c2ccccc2c2ccccc21", -1]
]}

# fetch the recorded call for `CC(C)OC(=O)COc1ccc(Cl)cc1Cl` here
-1

# fetch the recorded call for `CCN=c1cc2oc3cc(NCC)c(C)cc3c(-c3ccccc3C(=O)OCC)c-2cc1C` here
-1
